Reference for the values: patent US20230348426A1

- tgt: human FPR2 (Homo sapiens (Human))
- Sequence (P25090 whole entry): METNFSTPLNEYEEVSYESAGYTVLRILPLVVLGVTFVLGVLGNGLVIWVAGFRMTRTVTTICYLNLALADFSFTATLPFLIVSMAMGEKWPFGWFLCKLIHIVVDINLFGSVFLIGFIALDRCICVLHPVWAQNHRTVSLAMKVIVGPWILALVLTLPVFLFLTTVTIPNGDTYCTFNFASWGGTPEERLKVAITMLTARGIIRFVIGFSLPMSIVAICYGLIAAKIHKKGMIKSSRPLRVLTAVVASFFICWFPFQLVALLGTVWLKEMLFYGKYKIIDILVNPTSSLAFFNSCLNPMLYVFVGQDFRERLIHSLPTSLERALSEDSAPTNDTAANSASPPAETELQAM
- test method notes: FPR2 cyclic adenosine monophosphate (cAMP) assay
- stated conditions: CHO cells overexpressing human FPR2; forskolin 5 µM; inhibition of cAMP production; read-out: hFPR2 cAMP2 EC50
I'd appreciate it if you could supply pEC50 values for the items below.
One number for each entry, as −log10 of the molar value.

Take a look at these entries with their results.
COc1ccc([C@@H]2CN(c3cccn(CC(OC)C(F)(F)F)c3=O)C(=O)[C@H]2NC(=O)c2ccc(OC(F)(F)F)cc2)c(F)c1 (stereo partly shown); 8.64
COc1cc(F)c([C@@H]2CN(c3cccc(C4=CNCCC4)n3)C(=O)[C@H]2NC(=O)c2ccc(OC(F)F)cc2)c(F)c1; 8.66
COc1cc(F)c([C@@H]2CN(c3cccnc3P(C)(C)=O)C(=O)[C@H]2NC(=O)c2ccc(Cl)cc2)c(F)c1; 8.02

Go through the items and report each one's pEC50.
1. COc1ccc([C@@H]2CN(c3c(C)ccn(CC(F)F)c3=O)C(=O)[C@H]2NC(=O)c2ccc(Cl)cc2)cc1
2. COc1cc(F)c([C@@H]2CN(c3nccc(NC4CCOC4)c3C(F)(F)F)C(=O)[C@H]2NC(=O)c2ccc(Cl)cc2)c(F)c1 (stereo partly shown) [Example 263]

8.52
8.12

For each entry beneath this line, provide reported pEC50.
1. COc1cc(F)c([C@@H]2CN(c3cccnc3P(C)(C)=O)C(=O)[C@H]2NC(=O)c2ccc(OC(F)F)cc2)c(F)c1
2. COc1cc(F)c([C@@H]2CN(c3nccc(N4C[C@@H]5C[C@H]4CN5C)c3C#N)C(=O)[C@H]2NC(=O)c2ccc(Cl)cc2)c(F)c1
3. COCC(C(=O)N1CC[C@@H](O)C1)n1cccc(N2C[C@@H](c3c(F)cc(OC)cc3F)[C@H](NC(=O)c3ccc(OC(F)F)cc3)C2=O)c1=O (stereo partly shown)
4. COc1ccc([C@@H]2CN(c3cccn(CC(OC)C(F)(F)F)c3=O)C(=O)[C@H]2NC(=O)c2ccc(Cl)cc2)c(F)c1 (stereo partly shown)
5. COc1cc(N2CCN(C)CC2)nc(N2C[C@@H](c3c(F)cc(OC)cc3F)[C@H](NC(=O)c3ccc(OC(F)F)cc3)C2=O)c1
6. COc1cc(F)c([C@@H]2CN(c3nc(N4C[C@@H](C)N(C)[C@@H](C)C4)ccc3F)C(=O)[C@H]2NC(=O)c2ccc(OC(F)F)cc2)c(F)c1
7. COCCn1cccc(N2C(=O)[C@@H](NC(=O)c3ccc(OC(F)F)cc3)[C@H](c3c(F)cc(OC)cc3F)[C@@H]2C)c1=O

8.00
8.39
8.10
8.74
8.51
9.15
8.54

// batch mode: one pEC50 value per listed entry
1. COCC(CN)n1cccc(N2C[C@@H](c3c(F)cc(OC)cc3F)[C@H](NC(=O)c3ccc(OC(F)(F)F)cc3)C2=O)c1=O (stereo partly shown) [Example 78]
2. COc1cc(F)c([C@@H]2CN(c3cccn(CC4CC(F)(F)C4)c3=O)C(=O)[C@H]2NC(=O)c2ccc(OC(F)F)cc2)c(F)c1

8.70
8.57

Go through the list and state pEC50 for each entry.
1. COc1cc(F)c([C@@H]2CN(c3ccc(F)c(N4C[C@@H]5C[C@H]4CN5C)n3)C(=O)[C@H]2NC(=O)c2ccc(OC(F)(F)F)cc2)c(F)c1
2. COCCN1CCC(c2cc(OC)cc(N3C(=O)[C@@H](NC(=O)c4ccc(OC(F)F)cc4)[C@H](c4c(F)cc(OC)cc4F)[C@@H]3C)n2)CC1

[8.46, 8.74]
